# Test system: Puccinia recondita f. sp. tritici
# procedure details: Puccinia recondita f. sp. tritici / wheat / leaf disc curative (brown rust)
# Format: in vivo
# reported conditions: foliar, wheat leaf segments cv. Kanzler, compound applied 1 day after inoculation, assessed 6-8 days after application, read-out: control of Puccinia recondita f. sp. tritici (percent disease control compared to untreated)
Recorded pest or weed control at 200 ppm values for a group of compounds are listed next.
assay endpoint: pest or weed control at 200 ppm

{"compound": "CCN(C)/C=N/c1cc(OC)c(C(O)(COCC(C)(C)COC(C)(C)C)C(F)(F)F)cc1C (stereo not drawn) [E.015]", "assay endpoint": "pest or weed control at 200 ppm", "data value": "≥ 80%"}
{"compound": "CCOCC(O)(c1cc(C)c(/N=C/N(C)CC)cc1OC)C(F)(F)F (stereo not drawn) [E.002]", "assay endpoint": "pest or weed control at 200 ppm", "data value": "≥ 80%"}
{"compound": "CCN(C)/C=N/c1cc(OC)c(C(O)(COC2CCCCC2)C(F)(F)F)cc1C (stereo not drawn) [E.039]", "assay endpoint": "pest or weed control at 200 ppm", "data value": "≥ 80%"}
{"compound": "CCCCOCC(O)(c1cc(C)c(/N=C/N(C)CC)cc1OC)C(F)(F)F (stereo not drawn) [E.013]", "assay endpoint": "pest or weed control at 200 ppm", "data value": "≥ 80%"}
{"compound": "CCN(C)/C=N/c1cc(OC)c(C(O)(CC#N)C(F)(F)F)cc1C (stereo not drawn) [E.061]", "assay endpoint": "pest or weed control at 200 ppm", "data value": "≥ 80%"}
{"compound": "CC#CCOCC(O)(c1cc(C)c(/N=C/N(C)CC)cc1OC)C(F)(F)F (stereo not drawn) [E.040]", "assay endpoint": "pest or weed control at 200 ppm", "data value": "≥ 80%"}
{"compound": "CCN(C)/C=N/c1cc(OC)c(C(O)(CSCc2ccccc2)C(F)(F)F)cc1C (stereo not drawn) [E.069]", "assay endpoint": "pest or weed control at 200 ppm", "data value": "≥ 80%"}
{"compound": "CCN(C)/C=N/c1cc(OC)c(C(O)(C2CCS(=O)(=O)CC2)C(F)(F)F)cc1C (stereo not drawn) [E.076]", "assay endpoint": "pest or weed control at 200 ppm", "data value": "≥ 80%"}
{"compound": "CCN(C)/C=N/c1cc(OC)c(C(O)(COCCc2ccccc2)C(F)(F)F)cc1C (stereo not drawn) [E.021]", "assay endpoint": "pest or weed control at 200 ppm", "data value": "≥ 80%"}

----------
# Tested on: Puccinia recondita f. sp. tritici
# procedure details: Puccinia recondita f. sp. tritici / wheat / leaf disc curative (brown rust)
# Type: in vivo
# reported conditions: foliar, wheat leaf segments cv. Kanzler, compound applied 1 day after inoculation, assessed 6-8 days after application, read-out: control of Puccinia recondita f. sp. tritici (percent disease control compared to untreated)
Recorded pest or weed control at 200 ppm values for a group of compounds are listed next.

{"compound": "CCN(C)/C=N/c1cc(OC)c(C(O)(COCC2(c3ccc(Cl)cc3)CC2)C(F)(F)F)cc1C (stereo not drawn) [E.007]", "measured target": "Puccinia recondita f. sp. tritici", "pest or weed control at 200 ppm": "≥ 80%"}
{"compound": "CCN(C)/C=N/c1cc(OC)c(C(O)(COC2Cc3ccccc3C2)C(F)(F)F)cc1C (stereo not drawn) [E.010]", "measured target": "Puccinia recondita f. sp. tritici", "pest or weed control at 200 ppm": "≥ 80%"}
{"compound": "CCN(C)/C=N/c1cc(OC)c(C(O)(COCC2CC2(F)F)C(F)(F)F)cc1C (stereo not drawn) [E.031]", "measured target": "Puccinia recondita f. sp. tritici", "pest or weed control at 200 ppm": "≥ 80%"}
{"compound": "CCN(C)/C=N/c1cc(OC)c(C(O)(CON=C2CCCCC2)C(F)(F)F)cc1C (stereo not drawn) [E.037]", "measured target": "Puccinia recondita f. sp. tritici", "pest or weed control at 200 ppm": "≥ 80%"}
{"compound": "CCOC1CCC(C(O)(c2cc(C)c(/N=C/N(C)CC)cc2OC)C(F)(F)F)CC1 (stereo not drawn) [E.080]", "measured target": "Puccinia recondita f. sp. tritici", "pest or weed control at 200 ppm": "≥ 80%"}
{"compound": "C=CCOCCOCC(O)(c1cc(C)c(/N=C/N(C)CC)cc1OC)C(F)(F)F (stereo not drawn) [E.030]", "measured target": "Puccinia recondita f. sp. tritici", "pest or weed control at 200 ppm": "≥ 80%"}
{"compound": "CCN(C)/C=N/c1cc(OC)c(C(O)(COC2CC(C)CC(C)C2)C(F)(F)F)cc1C (stereo not drawn) [E.006]", "measured target": "Puccinia recondita f. sp. tritici", "pest or weed control at 200 ppm": "≥ 80%"}
{"compound": "CCN(C)/C=N/c1cc(OC)c(C(O)(COCC(C)C)C(F)(F)F)cc1C (stereo not drawn) [E.046]", "measured target": "Puccinia recondita f. sp. tritici", "pest or weed control at 200 ppm": "≥ 80%"}
{"compound": "CCN(C)/C=N/c1cc(OC)c(C(O)(COC2CCC(C)CC2)C(F)(F)F)cc1C (stereo not drawn) [E.042]", "measured target": "Puccinia recondita f. sp. tritici", "pest or weed control at 200 ppm": "≥ 80%"}

----------
assay endpoint: melting point

{"compound": "CCN(C)/C=N/c1cc(OC)c(C(O)(CS(=O)(=O)Cc2ccccc2)C(F)(F)F)cc1C (stereo not shown) [E.064]", "assay endpoint": "melting point", "data value": "56 to 58 °C"}
{"compound": "CCN(C)/C=N/c1cc(OC)c(C(O)(CS(=O)(=O)c2ccccc2)C(F)(F)F)cc1C (stereo not shown) [E.065]", "assay endpoint": "melting point", "data value": "103 to 105 °C"}
{"compound": "CCN(C)C=Nc1cc(OC)c(C(O)(C/C(=N/OC)c2ccccc2)C(F)(F)F)cc1C (stereo not shown) [E.059]", "assay endpoint": "melting point", "data value": "105 to 107 °C"}
{"compound": "CCN(C)/C=N/c1cc(OC)c(C(O)(C(F)(F)F)C(C)(C)C#N)cc1C (stereo not shown) [E.060]", "assay endpoint": "melting point", "data value": "90 to 93 °C"}
{"compound": "CCSCC(O)(c1cc(C)c(/N=C/N(C)CC)cc1OC)C(F)(F)F (stereo not shown) [E.073]", "assay endpoint": "melting point", "data value": "81 to 83 °C"}
{"compound": "CCN(C)/C=N/c1cc(OC)c(C(O)(CC#N)C(F)(F)F)cc1C (stereo not shown) [E.061]", "assay endpoint": "melting point", "data value": "86 to 88 °C"}
{"compound": "CCN(C)/C=N/c1cc(OC)c(C(O)(C2=COCCC2)C(F)(F)F)cc1C (stereo not shown) [E.074]", "assay endpoint": "melting point", "data value": "115 to 116.6 °C"}

----------
# System: Puccinia recondita f. sp. tritici
# procedure details: Puccinia recondita f. sp. tritici / wheat / leaf disc curative (brown rust)
# Assay type: in vivo
# reported conditions: foliar, wheat leaf segments cv. Kanzler, compound applied 1 day after inoculation, assessed 6-8 days after application, read-out: control of Puccinia recondita f. sp. tritici (percent disease control compared to untreated)

{"compound": "CCN(C)/C=N/c1cc(OC)c(C(O)(CSc2ccc(F)cc2)C(F)(F)F)cc1C (centres unmarked)", "pest or weed control at 200 ppm": "≥ 80%"}
{"compound": "CCN(C)/C=N/c1cc(OC)c(C(O)(COCCON=C(C)C)C(F)(F)F)cc1C (centres unmarked)", "pest or weed control at 200 ppm": "≥ 80%"}
{"compound": "CCCOCCC(O)(c1cc(C)c(/N=C/N(C)CC)cc1OC)C(F)(F)F (centres unmarked)", "pest or weed control at 200 ppm": "≥ 80%"}
{"compound": "CCN(C)/C=N/c1cc(OC)c(C(O)(C/C(C)=N/OCc2ccccc2)C(F)(F)F)cc1C (centres unmarked)", "pest or weed control at 200 ppm": "≥ 80%"}
{"compound": "CCN(C)/C=N/c1cc(OC)c(C(O)(COCC2(C)COC2)C(F)(F)F)cc1C (centres unmarked)", "pest or weed control at 200 ppm": "≥ 80%"}

----------
# Test system: Puccinia recondita f. sp. tritici
# procedure details: Puccinia recondita f. sp. tritici / wheat / leaf disc curative (brown rust)
# Type: in vivo
# reported conditions: foliar, wheat leaf segments cv. Kanzler, compound applied 1 day after inoculation, assessed 6-8 days after application, read-out: control of Puccinia recondita f. sp. tritici (percent disease control compared to untreated)

{"molecule": "CCOCCOCC(O)(c1cc(C)c(/N=C/N(C)CC)cc1OC)C(F)(F)F (stereo not drawn) [E.020]", "pest or weed control at 200 ppm": "≥ 80%"}
{"molecule": "CCN(C)/C=N/c1cc(OC)c(C(O)(COCC2(CC)COC2)C(F)(F)F)cc1C (stereo not drawn) [E.034]", "pest or weed control at 200 ppm": "≥ 80%"}
{"molecule": "CCO/N=C(\\C)CC(O)(c1cc(C)c(/N=C/N(C)CC)cc1OC)C(F)(F)F (stereo not drawn) [E.057]", "pest or weed control at 200 ppm": "≥ 80%"}
